Reported neutralization IC50 by item:
Molecular target: Env of HIV-1 strain PVO.4 (HIV-1)
Experiment: cell-based or functional assay
quantity name: neutralization IC50

binder="γ3κ3 (antibody, V domains shown) VH: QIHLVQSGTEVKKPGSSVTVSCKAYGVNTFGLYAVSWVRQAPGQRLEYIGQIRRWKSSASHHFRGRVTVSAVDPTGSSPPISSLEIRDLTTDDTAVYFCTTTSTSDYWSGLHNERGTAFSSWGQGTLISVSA VL: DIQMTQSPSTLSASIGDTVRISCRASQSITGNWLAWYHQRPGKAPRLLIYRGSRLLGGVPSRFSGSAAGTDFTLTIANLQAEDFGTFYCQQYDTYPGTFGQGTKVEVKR" measured="0.17 µg/mL"
binder="γ3κ5 (antibody, V domains shown) VH: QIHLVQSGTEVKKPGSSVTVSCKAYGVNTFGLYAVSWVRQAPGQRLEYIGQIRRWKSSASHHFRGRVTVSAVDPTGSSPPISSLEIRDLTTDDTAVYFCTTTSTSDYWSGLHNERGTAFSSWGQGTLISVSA VL: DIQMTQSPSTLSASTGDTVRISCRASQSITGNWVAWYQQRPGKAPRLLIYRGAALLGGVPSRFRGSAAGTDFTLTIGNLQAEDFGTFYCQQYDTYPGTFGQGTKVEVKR" measured="0.081 µg/mL"
